Where do the numbers come from? From patent US6919086B1.

Please respond with reported allergenic potency (Prel) at 25% inhibition (relative to native Phl p 5b) for every item in the list.
Molecular target: IgE antibodies of the individual allergic patient serum II/17
Assay: EAST inhibition, individual serum II/17

# input Report allergenic potency (Prel) at 25% inhibition (relative to native Phl p 5b) for recombinant Phl p 5b (wild type) (protein) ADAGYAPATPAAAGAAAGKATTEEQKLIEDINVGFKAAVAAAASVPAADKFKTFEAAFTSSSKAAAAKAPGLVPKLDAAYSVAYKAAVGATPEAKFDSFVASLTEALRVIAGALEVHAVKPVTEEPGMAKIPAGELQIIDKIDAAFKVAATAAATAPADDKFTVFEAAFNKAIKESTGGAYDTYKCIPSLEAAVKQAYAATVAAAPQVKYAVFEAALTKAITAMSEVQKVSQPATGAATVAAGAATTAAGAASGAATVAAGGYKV please.
# output 1.04

# input Same thing, different binder: rPhl p 5b point mutant PM3 (A13C) (protein) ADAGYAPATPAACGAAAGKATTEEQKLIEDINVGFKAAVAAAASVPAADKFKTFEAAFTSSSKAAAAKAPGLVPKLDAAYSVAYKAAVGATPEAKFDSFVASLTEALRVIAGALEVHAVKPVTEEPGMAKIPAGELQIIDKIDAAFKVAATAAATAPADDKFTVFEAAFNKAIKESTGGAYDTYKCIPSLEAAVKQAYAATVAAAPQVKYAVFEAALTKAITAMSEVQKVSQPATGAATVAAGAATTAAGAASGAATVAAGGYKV
# output 0.855

# input // same read-out, input: rPhl p 5b deletion mutant DM1 (deletion K50-P132, D49L) (protein) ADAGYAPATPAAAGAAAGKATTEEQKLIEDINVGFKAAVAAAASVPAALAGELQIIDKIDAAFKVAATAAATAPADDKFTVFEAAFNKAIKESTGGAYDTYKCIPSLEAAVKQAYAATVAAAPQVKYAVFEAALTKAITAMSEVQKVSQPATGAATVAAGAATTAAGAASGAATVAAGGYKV
# output 0.033

# input // query: natural Phl p 5b, purified by affinity chromatography (protein) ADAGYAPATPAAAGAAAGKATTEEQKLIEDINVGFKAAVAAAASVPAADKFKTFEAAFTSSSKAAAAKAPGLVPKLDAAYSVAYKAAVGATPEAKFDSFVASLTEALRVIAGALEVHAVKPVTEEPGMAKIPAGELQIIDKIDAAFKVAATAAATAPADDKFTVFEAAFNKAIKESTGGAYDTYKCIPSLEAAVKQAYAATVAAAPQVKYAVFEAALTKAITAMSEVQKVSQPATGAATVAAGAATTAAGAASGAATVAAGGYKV
# output 1
